SYSTEM: Testis-specific serine/threonine-protein kinase 1 (Homo sapiens) (UniProt Q9BXA7);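 also: mean percent inhibition of TSSK1, from the GSK PKIS screening dataset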
Sequence (whole entry): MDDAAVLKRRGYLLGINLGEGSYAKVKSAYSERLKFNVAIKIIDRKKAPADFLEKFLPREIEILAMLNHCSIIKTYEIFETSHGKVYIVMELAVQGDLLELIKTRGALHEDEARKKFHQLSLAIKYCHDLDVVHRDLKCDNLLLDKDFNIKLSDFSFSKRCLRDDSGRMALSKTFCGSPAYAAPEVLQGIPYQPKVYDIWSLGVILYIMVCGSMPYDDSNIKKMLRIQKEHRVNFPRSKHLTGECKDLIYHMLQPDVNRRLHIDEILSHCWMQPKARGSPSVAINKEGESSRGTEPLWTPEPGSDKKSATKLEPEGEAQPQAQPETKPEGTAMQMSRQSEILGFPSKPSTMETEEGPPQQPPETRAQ
CONDITION CONTEXT: at 0.1 µM
Label T when inhibition >= 3%; otherwise F.

Use these answered entries as a reference point.
COc1ccc(Nc2ncc(-c3ccccc3)o2)cc1OC : F
CNC(=O)c1ncccc1Nc1nc(Nc2cc3c(cc2OC)CCCN3C(=O)CN(C)C)nc2[nH]ccc12 : T
FC(F)(F)CNc1nccc(-c2cnn3ncccc23)n1 : T
NS(=O)(=O)c1ccc(N/N=C2\C(=O)Nc3ccc(C(=O)NCc4ccncc4)cc32)cc1 : T
Cn1c(-c2nonc2N)nc2cnccc21 : T
COc1cc2c(cc1Nc1nc(Nc3cccc(F)c3C(N)=O)c3cc[nH]c3n1)N(C(=O)CN1CCN(C(C)C)CC1)CC2 : T
N#Cc1cccc(Nc2ncc(-c3ccccc3)o2)c1 : T
COC(=O)Nc1nc2ccc(Oc3ccc(NC(=O)Nc4cc(C(F)(F)F)ccc4F)cc3)cc2s1 : F

Ask | Can CS(=O)(=O)CCNCc1ccoc1-c1ccc2ncnc(Nc3ccc(OCc4ccccc4)cc3)c2c1 be said to have inhibition at or above 3%?
Reply | F

Ask | Can CCS(=O)(=O)c1ccc(OC)c(Nc2ncc(-c3cccc(F)c3)o2)c1 be said to have inhibition at or above 3%?
Reply | T

Ask | Can CNC(=O)c1cncc(/C=C/c2ccccc2C)c1 be said to have inhibition at or above 3%?
Reply | T
